targetOfAssay: T1, human LAG3 (form used in Octet, Biacore and HDX-MS not given) (human, UniProt P18627 23-450, limits assumed)
T1 sequence (looked up): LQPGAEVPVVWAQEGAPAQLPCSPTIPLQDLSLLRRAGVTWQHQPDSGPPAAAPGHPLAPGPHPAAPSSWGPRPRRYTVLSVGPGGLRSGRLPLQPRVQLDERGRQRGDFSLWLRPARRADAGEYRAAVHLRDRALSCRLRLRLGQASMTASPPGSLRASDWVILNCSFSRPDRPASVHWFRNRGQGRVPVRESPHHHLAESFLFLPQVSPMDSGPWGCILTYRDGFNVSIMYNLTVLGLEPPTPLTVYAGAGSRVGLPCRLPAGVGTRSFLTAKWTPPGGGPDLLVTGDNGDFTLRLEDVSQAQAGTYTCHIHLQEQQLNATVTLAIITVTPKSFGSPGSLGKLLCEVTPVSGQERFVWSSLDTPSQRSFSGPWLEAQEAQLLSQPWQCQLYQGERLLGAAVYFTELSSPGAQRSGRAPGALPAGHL
protocol: BLI (Octet)
readoutLabel: koff (s⁻¹)
Write the number in s⁻¹ without appending the unit.

Solved cases (4 shown):
| binder | koff, s⁻¹ |
| --- | --- |
| hu023.05 (antibody, human IgG4, V domains shown, humanized from 023c) VH: QVQLVQSGAEVKKPGASVKVSCKASGYTFTESPMNWVRQAPGQGFEWMGIIYTDTGEPTYAEEFKGRVTMTRDTSTSTVYMELSSLRSEDTAVYFCASDYGSILYWYFDVWGQGTLVTVSS VL: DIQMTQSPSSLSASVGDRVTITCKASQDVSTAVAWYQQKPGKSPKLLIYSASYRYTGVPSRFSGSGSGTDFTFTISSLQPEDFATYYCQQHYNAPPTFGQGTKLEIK | 0.000198 |
| hu023.06 (antibody, human IgG4, V domains shown, humanized from 023c) VH: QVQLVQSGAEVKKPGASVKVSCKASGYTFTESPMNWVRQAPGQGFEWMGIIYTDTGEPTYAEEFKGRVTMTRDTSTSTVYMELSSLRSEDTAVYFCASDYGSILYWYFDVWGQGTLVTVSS VL: DIQMTQSPSSLSTSVGDRVTITCKASQDVSTAVAWYQQKPGKSPKLLIYSASYRYTGVPSRFSGSGSGTDFTFTISSVQPEDFATYYCQQHYNAPPTFGQGTKLEIK | 0.000161 |
| hu023.04 (antibody, human IgG4, V domains shown, humanized from 023c) VH: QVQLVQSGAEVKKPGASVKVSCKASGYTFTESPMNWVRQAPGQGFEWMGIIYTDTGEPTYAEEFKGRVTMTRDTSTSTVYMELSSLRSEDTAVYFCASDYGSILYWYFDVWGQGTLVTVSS VL: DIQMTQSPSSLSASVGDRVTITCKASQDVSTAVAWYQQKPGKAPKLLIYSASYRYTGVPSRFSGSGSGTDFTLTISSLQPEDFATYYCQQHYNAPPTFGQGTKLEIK | 0.000164 |
| hu023.09 (antibody, human IgG4, V domains shown, humanized from 023c) VH: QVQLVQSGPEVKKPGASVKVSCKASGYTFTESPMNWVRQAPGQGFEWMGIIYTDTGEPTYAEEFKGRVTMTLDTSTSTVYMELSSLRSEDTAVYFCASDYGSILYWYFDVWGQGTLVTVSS VL: DIQMTQSPSSLSTSVGDRVTITCKASQDVSTAVAWYQQKPGKSPKLLIYSASYRYTGVPSRFSGSGSGTDFTFTISSVQPEDFATYYCQQHYNAPPTFGQGTKLEIK | 0.000204 |

Check the records and state koff for hu023.07 (antibody, human IgG4, V domains shown, humanized from 023c) VH: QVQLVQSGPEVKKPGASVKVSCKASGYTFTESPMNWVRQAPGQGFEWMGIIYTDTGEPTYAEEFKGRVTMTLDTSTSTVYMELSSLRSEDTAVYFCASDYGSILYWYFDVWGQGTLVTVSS VL: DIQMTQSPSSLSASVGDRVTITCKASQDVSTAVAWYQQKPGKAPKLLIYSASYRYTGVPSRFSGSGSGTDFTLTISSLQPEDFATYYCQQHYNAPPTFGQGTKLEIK
0.000153
